Protocol Text: Solubility in PGMEA
Assay type: physicochemical
Recorded Conditions: in propylene glycol monomethyl ether acetate (PGMEA)
Recorded measurements of Solubility (w/w %) in PGMEA, one per entry
Value expressed in % w/w %; do not type the unit.

Use these answered entries as a reference point.
[[record]]
compound = "O=C1c2cccc3cccc(c23)C(=O)N1OS(=O)(=O)C(F)(F)F [NIT, N-Hydroxynaphthalimide triflate, reference compound]"
quantitative_result = 1.7

[[record]]
compound = "CCCCOC(=O)/C=C/c1ccc2c3c(cccc13)C(=O)N(OS(=O)(=O)C(F)(F)F)C2=O"
quantitative_result = 6.9

[[record]]
compound = "O=C1c2cccc3c(C#Cc4ccccc4)ccc(c23)C(=O)N1OS(=O)(=O)C(F)(F)F [Comparative Compound A, reference compound]"
quantitative_result = 1.0

[[record]]
compound = "CCC(C)Oc1ccc(/C=C/c2ccc3c4c(cccc24)C(=O)N(OS(=O)(=O)C(F)(F)F)C3=O)cc1 (centres unmarked)"
quantitative_result = 4.3


Problem: Entry O=C1c2cccc3c(/C=C/c4ccccc4)ccc(c23)C(=O)N1OS(=O)(=O)C(F)(F)F has what Solubility (w/w %) in PGMEA?
Result: 1.6
